# Assay Target: B-Raf (V600E) kinase (Homo sapiens, UniProt P15056, V600E)
# Construct: B-Raf (V600E) residues 416-766 with a; GST (N); purchased SignalChem
# Sequence (P15056 416-766 V600E): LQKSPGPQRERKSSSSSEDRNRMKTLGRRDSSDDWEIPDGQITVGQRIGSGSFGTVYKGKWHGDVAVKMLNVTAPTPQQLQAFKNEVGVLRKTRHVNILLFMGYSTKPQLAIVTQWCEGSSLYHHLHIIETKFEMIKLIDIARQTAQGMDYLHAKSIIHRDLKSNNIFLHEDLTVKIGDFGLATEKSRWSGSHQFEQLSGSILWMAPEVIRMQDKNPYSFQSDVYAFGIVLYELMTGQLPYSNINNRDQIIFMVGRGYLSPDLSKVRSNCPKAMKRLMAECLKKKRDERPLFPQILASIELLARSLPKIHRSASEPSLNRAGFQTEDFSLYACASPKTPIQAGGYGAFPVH
# Assay Procedure: Biochemical assay for B-Raf (V600E).1 (coupled pyruvate kinase/lactate dehydrogenase)
# Applied Conditions: read-out: BRAF V600E.1 IC50
Would you mind telling me the reported IC50 of each entry?

Challenge: Answer with reported IC50 of COC(=O)Nc1cc(-c2nccc(-c3cc(NC(=O)NCCC4(OC)CC4)cnc3C)n2)ccn1 [Example 143]
Response given: ≤ 100 nM

Challenge: Answer with reported IC50 of COC(=O)Nc1cc(-c2cnnc(-c3cc(NC(=O)N4CCC(CC(F)(F)F)C4)c(F)cc3C)c2)ccn1 (stereo not shown) [Example 150]
Response given: ≤ 100 nM

Challenge: Answer with reported IC50 of COC(C)(C)CCNC(=O)Nc1cnc(C)c(-c2cc(-c3ccnc(NC(=O)C4CC4)c3)cnn2)c1 [Example 121]
Response given: ≤ 100 nM

Challenge: Answer with reported IC50 of COC(C)(C)CCNC(=O)Nc1cc(-c2nccc(-c3ccnc(NC(=O)C4CC4)c3)n2)c(C)cc1F [Example 83]
Response given: ≤ 100 nM

Challenge: Answer with reported IC50 of Cc1cc(F)c(NC(=O)N2CCC(C)(C#N)CC2)cc1-c1cc(OCCO)nc(-c2ccnc3[nH]ncc23)c1 [Example 92]
Response given: ≤ 100 nM

Challenge: Answer with reported IC50 of CNC(=O)c1cc(-c2cncc(-c3cc(NC(=O)N4CC[C@H](C(F)(F)F)C4)c(F)cc3C)c2)ccn1 [Example 214]
Response given: 100 to 500 nM

Challenge: Answer with reported IC50 of Cc1ccc(NC(=O)NCCC(C)(C)C)cc1-c1cc(N2CCOCC2)nc(N2CC(C)(O)C2)n1 [Example 1]
Response given: ≤ 100 nM

Challenge: Answer with reported IC50 of Cc1ccc(NC(=O)N[C@H]2C[C@](C)(F)C2)cc1-c1cc(-c2ccnc(NC(=O)C3CC3)c2)nc(C2CC2)c1 [Example 61]
Response given: ≤ 100 nM

Challenge: Answer with reported IC50 of COC(=O)Nc1cc(-c2cccc(-c3cc(NC(=O)NCCC4(OC)CC4)cnc3C)c2)ncn1 [Example 138]
Response given: ≤ 100 nM

Challenge: Answer with reported IC50 of Cc1ccc(NC(=O)NC2CCCCCC2)cc1-c1cc(OCCO)nc(N2CCOCC2)c1 [Example 13]
Response given: ≤ 100 nM

Challenge: Answer with reported IC50 of Cc1ccc(NC(=O)N2CC[C@@H](C)C2)cc1-c1cncc(-c2cc(NC(=O)C3CC3)ncn2)c1 [Example 219]
Response given: 100 to 500 nM

Challenge: Answer with reported IC50 of COC(=O)Nc1cc(-c2cc(-c3cc(NC(=O)NCCC4(C)CC4)ccc3F)cc(OCCO)n2)ccn1 [Example 187]
Response given: 100 to 500 nM

Challenge: Answer with reported IC50 of Cc1cc(F)c(NC(=O)NCCC2(C(F)(F)F)CC2)cc1-c1cc(N2CCOCC2)nc(N2CCOCC2)c1 [Example 23]
Response given: ≤ 100 nM

Challenge: Answer with reported IC50 of Cc1ccc(NC(=O)Nc2ccnc(C(C)(C)C#N)c2)cc1-c1ccnc(-c2ccnc(C(=O)NC3CC3)c2)c1 [Example 68]
Response given: ≤ 100 nM

Challenge: Answer with reported IC50 of CC(=O)Nc1cc(-c2cc(-c3cc(NC(=O)Nc4ccc(C(F)(F)F)cc4)cnc3C)ccn2)ccn1 [Example 48]
Response given: ≤ 100 nM

Challenge: Answer with reported IC50 of Cc1ncc(NC(=O)NCCC(C)(C)C)cc1-c1cc(N2CCOCC2)c(=O)n(C)n1 [Example 17]
Response given: ≤ 100 nM

----------
Would you mind telling me the reported pIC50 of each entry?
# Assay Target: B-Raf kinase (Homo sapiens, UniProt P15056)
# Construct: GST (N); purchased Sigma
# Sequence (P15056 416-766): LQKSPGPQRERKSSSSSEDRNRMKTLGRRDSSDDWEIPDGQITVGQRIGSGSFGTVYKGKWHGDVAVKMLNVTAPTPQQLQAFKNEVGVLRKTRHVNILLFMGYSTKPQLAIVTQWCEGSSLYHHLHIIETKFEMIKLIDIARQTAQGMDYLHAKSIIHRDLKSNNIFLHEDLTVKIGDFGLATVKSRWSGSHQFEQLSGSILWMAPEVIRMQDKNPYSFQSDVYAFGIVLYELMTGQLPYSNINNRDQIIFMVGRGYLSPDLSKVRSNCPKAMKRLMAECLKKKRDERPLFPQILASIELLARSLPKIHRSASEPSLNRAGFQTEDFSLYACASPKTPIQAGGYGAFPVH
# Assay Procedure: Biochemical assay for B-Raf.1 (coupled pyruvate kinase/lactate dehydrogenase)
# Applied Conditions: read-out: BRAF.1 IC50
pIC50: −log10 of the molar value.

Challenge: Answer with reported pIC50 of COC[C@@H]1CCN(C(=O)Nc2cnc(C)c(-c3ccnc(-c4ccnc(NC(=O)OC)c4)c3)c2)C1
Response given: < 6.00

Challenge: Answer with reported pIC50 of COC(=O)Nc1cc(-c2cc(-c3cc(NC(=O)NCCC4(C)CC4)c(F)cc3F)cc(OCCO)n2)ccn1
Response given: ≥ 7.00

Challenge: Answer with reported pIC50 of COC(=O)Nc1nccc(-c2cc(OCCO)cc(-c3cc(NC(=O)NCCC4(C)CC4)c(F)cc3C)c2)n1
Response given: ≥ 7.00

Challenge: Answer with reported pIC50 of COC[C@@H]1CCN(C(=O)Nc2cc(-c3cc(-c4ccnc(NC(=O)OC)c4)cnn3)c(C)cc2F)C1
Response given: 6.00 to 6.30

----------
Would you mind telling me the reported IC50 of each entry?
# Assay Target: B-Raf kinase (Homo sapiens)
# Construct: GST (N); purchased Sigma
# Assay Procedure: Biochemical assay for B-Raf.1 (coupled pyruvate kinase/lactate dehydrogenase)
# Applied Conditions: read-out: BRAF.1 IC50

Challenge: Answer with reported IC50 of Cc1cc(F)c(NC(=O)NCCC2(C)CC2)cc1-c1cc(OCC(C)(C)O)nc(-c2ccncc2)c1 [Example 34]
Response given: ≤ 100 nM

Challenge: Answer with reported IC50 of COC(C)(C)CCNC(=O)Nc1cnc(C)c(-c2nccc(-c3ccnc(NC(=O)C4CC4)c3)n2)c1 [Example 82]
Response given: 100 to 500 nM

Challenge: Answer with reported IC50 of COC(=O)Nc1cc(-c2cnnc(-c3cc(NC(=O)N4CCC(C)(C)C4)cnc3C)c2)ccn1 [Example 191]
Response given: > 1000 nM

Challenge: Answer with reported IC50 of Cc1cc(F)c(NC(=O)NCCC(C)(C)C#N)cc1-c1cccc(-c2ccnc(NC(=O)C3CC3)c2)c1 [Example 66]
Response given: ≤ 100 nM

Challenge: Answer with reported IC50 of Cc1cc(F)c(NC(=O)NCCC2(C)CC2)cc1-c1nc(NCCO)cc(N2CCOCC2)n1 [Example 31]
Response given: 100 to 500 nM

Challenge: Answer with reported IC50 of COC(=O)Nc1cc(-c2cnnc(-c3cc(NC(=O)N4CCC(CC(F)(F)F)C4)ccc3C)c2)ccn1 (stereo not shown) [Example 186]
Response given: ≤ 100 nM

Challenge: Answer with reported IC50 of Cc1ncc(NC(=O)NCCC(C)(C)C)cc1-c1cc(-c2ccnc(NC(=O)C3CC3)c2)cnn1 [Example 120]
Response given: ≤ 100 nM

----------
# Assay Target: C-Raf kinase (Homo sapiens, UniProt P04049, Y340D/Y341D)
# Construct: Y340D,; GST (N); purchased Sigma
# Sequence (P04049 307-648 Y340D/Y341D): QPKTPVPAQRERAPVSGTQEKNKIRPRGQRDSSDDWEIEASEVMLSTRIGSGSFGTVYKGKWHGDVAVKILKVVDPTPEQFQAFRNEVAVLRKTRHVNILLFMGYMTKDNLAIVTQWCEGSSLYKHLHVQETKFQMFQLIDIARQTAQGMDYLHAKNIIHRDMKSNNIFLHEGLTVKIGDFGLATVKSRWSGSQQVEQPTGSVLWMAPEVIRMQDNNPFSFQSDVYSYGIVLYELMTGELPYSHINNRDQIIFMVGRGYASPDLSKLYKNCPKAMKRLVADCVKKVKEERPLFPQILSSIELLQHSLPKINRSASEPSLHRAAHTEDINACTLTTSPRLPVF
# Assay Procedure: Biochemical assay for C-Raf.1 (coupled pyruvate kinase/lactate dehydrogenase)
# Applied Conditions: read-out: CRAF.1 IC50
Would you mind telling me the reported IC50 of each entry?

Challenge: Answer with reported IC50 of COC(C)(C)CCNC(=O)Nc1cc(-c2cccc(-c3ccnc(NC(C)=O)c3)c2)c(C)cc1F
Response given: ≤ 0.1 µM

Challenge: Answer with reported IC50 of Cc1cc(F)c(NC(=O)NCCC(C)(C)C)cc1-c1cc(OCCO)nc(C2CCOCC2)c1
Response given: ≤ 0.1 µM

Challenge: Answer with reported IC50 of Cc1cc(F)c(NC(=O)NCCC(C)(C)C)cc1-c1cc(-c2ccnc(NC(=O)C3CC3)c2)cnn1
Response given: ≤ 0.1 µM

Challenge: Answer with reported IC50 of CNC(=O)c1cc(-c2cnnc(-c3cc(NC(=O)N4CC[C@@H](OC(F)(F)F)C4)ccc3C)c2)ccn1
Response given: 0.1 to 0.5 µM

----------
# Assay Target: A-Raf kinase (Homo sapiens, UniProt P10398, Y301D/Y302D)
# Construct: purchased Sigma
# Sequence (P10398 with tags, fused parts or gaps Y301D/Y302D): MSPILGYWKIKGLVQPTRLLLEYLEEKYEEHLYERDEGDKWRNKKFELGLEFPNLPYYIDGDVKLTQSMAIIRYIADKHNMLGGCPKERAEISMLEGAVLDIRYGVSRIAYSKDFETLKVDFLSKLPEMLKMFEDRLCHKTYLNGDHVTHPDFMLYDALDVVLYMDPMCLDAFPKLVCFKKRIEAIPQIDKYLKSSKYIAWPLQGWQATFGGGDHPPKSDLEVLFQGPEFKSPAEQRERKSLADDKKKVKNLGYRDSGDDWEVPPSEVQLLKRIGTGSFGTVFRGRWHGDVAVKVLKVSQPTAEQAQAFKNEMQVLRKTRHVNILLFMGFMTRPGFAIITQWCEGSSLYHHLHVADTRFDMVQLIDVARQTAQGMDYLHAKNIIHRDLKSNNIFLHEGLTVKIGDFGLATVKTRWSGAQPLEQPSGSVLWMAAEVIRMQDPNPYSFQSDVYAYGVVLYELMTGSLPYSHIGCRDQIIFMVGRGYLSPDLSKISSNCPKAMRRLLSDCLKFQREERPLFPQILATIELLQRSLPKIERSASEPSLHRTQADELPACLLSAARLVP
# Assay Procedure: Biochemical assay for A-Raf.1 (coupled pyruvate kinase/lactate dehydrogenase)
# Applied Conditions: read-out: ARAF.1 IC50
Assay Endpoint: IC50

Challenge: Answer with reported IC50 of Cc1ccc(NC(=O)N2CCC(CC(F)(F)F)C2)cc1-c1cncc(-c2cc(NC(=O)C3CC3)ncn2)c1 (stereo not shown) [Example 194]
Response given: > 1000 nM

Challenge: Answer with reported IC50 of CC(=O)Nc1cc(-c2cc(-c3cc(NC(=O)NCCC4(C)CC4)c(F)cc3C)cc(C)n2)ccn1 [Example 55]
Response given: 100 to 500 nM

Challenge: Answer with reported IC50 of CNC(=O)c1cc(-c2cc(-c3cc(NC(=O)NCCC4(C)CC4)c(F)cc3C)cc(OCCO)n2)ccn1 [Example 164]
Response given: > 1000 nM

Challenge: Answer with reported IC50 of Cc1cc(F)c(NC(=O)NCCC2(C)CC2)cc1-c1ccnc(-c2ccnc(NC(=O)C3CC3)c2)c1 [Example 134]
Response given: 500 to 1000 nM

Challenge: Answer with reported IC50 of COC(C)(C)CCNC(=O)Nc1cc(-c2cc(OCCO)nc(-c3ccnc4[nH]ccc34)c2)c(C)cc1F [Example 90]
Response given: > 1000 nM

Challenge: Answer with reported IC50 of Cc1ccc(NC(=O)N2CC[C@@H](C)C2)cc1-c1cncc(-c2cc(NC(=O)C3CC3)ncn2)c1 [Example 219]
Response given: > 1000 nM

Challenge: Answer with reported IC50 of Cc1ncc(NC(=O)NCCC(C)(C)C)cc1-c1ccnc(N2CCOCC2)c1 [Example 16]
Response given: > 1000 nM

Hey, just so you know, these numbers are from patent US20230357179A1.
